# measurement target: δ-receptor (Mus musculus)
# Construct: from tissue; host or cells: mouse vas deferens
# Sequence (P32300 whole entry): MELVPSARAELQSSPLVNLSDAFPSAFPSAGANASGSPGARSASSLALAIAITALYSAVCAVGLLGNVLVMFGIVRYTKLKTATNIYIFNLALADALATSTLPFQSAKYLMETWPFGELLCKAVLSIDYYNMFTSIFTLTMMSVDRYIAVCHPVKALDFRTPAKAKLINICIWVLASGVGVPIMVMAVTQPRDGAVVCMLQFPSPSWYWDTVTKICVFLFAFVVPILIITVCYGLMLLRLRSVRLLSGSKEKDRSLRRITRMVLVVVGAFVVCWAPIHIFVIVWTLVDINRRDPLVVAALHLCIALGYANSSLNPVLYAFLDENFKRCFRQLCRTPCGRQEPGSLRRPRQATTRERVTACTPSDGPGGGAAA
# protocol summary: Antagonism to DPDPE in Mouse Vas Deferens (MVD)
# recorded conditions: MVD Antagonism to DPDPE, pA2, (50 nM)
Consider the following compounds; for each one, report its Kb.
Reply numerically in nM, unit not repeated.

The compound listed as Oc1cccc([C@]23CCN(CC4CC4)C[C@@H]2Cc2c([nH]c4ccccc24)C3)c1 (single isomer, unassigned) [Compound 47] has a reported Kb of 1.7

The compound listed as Oc1cccc([C@]23CCN(CC4CC4)C[C@@H]2Cc2c([nH]c4c(Cl)cccc24)C3)c1 (relative stereo) [Compound 40] has a reported Kb of 2.88

The compound listed as Oc1cccc([C@]23CCN(CC4CC4)C[C@@H]2Cc2c([nH]c4ccccc24)C3)c1 (relative stereo) [Compound 19] has a reported Kb of 6.03

The compound listed as CN1CC[C@]2(c3cccc(O)c3)Cc3[nH]c4ccccc4c3C[C@@]2(O)C1 (relative stereo) [Compound 54] has a reported Kb of 1.7

The compound listed as Oc1cccc([C@]23CCN(CC4CC4)C[C@@H]2Cc2c([nH]c4c(F)cccc24)C3)c1 (relative stereo) [Compound 29] has a reported Kb of 1.51

====

# System: Guinea Pig Ileal Longitudinal Muscle
# protocol summary: GPI, shift of the compound's effect by naloxone or nor-BNI
# recorded conditions: nor-BN1
Consider the following compounds; for each one, report its GPI nor-BN1 pA2.
The answer should be written as a number, with no unit following it.

The compound listed as Oc1cccc([C@]23CCN(CC4CC4)C[C@@H]2Cc2c([nH]c4c(F)cccc24)C3)c1 (relative stereo) has a reported GPI nor-BN1 pA2 of 7.72

The compound listed as CN1CC[C@]2(c3cccc(O)c3)Cc3[nH]c4ccc(Cl)cc4c3C[C@H]2C1 (relative stereo) has a reported GPI nor-BN1 pA2 of 7.16

The compound listed as Oc1cccc([C@]23CCN(CC4CC4)C[C@@H]2Cc2c([nH]c4c(Cl)cccc24)C3)c1 (relative stereo) has a reported GPI nor-BN1 pA2 of 7.72

The compound listed as CN1CC[C@]2(c3cccc(O)c3)Cc3[nH]c4ccccc4c3C[C@H]2C1 (relative stereo) has a reported GPI nor-BN1 pA2 of 6.65

The compound listed as CN1CC[C@]2(c3cccc(O)c3)Cc3[nH]c4ccc(Br)cc4c3C[C@H]2C1 (relative stereo) has a reported GPI nor-BN1 pA2 of 7.19

The compound listed as CN1CC[C@]2(c3cccc(O)c3)Cc3[nH]c4ccccc4c3C[C@@]2(O)C1 (relative stereo) has a reported GPI nor-BN1 pA2 of 8.06

====

# System: δ opioid receptor
# protocol summary: Bonding (binding) assay, guinea pig brain homogenate, DPDPE (hot) / DADLE (cold)
# recorded conditions: μ/δ; selectivity ratio
test readout: Ki ratio μ/δ

The molecule listed as Cc1ccc2[nH]c3c(c2c1)C[C@H]1CN(C)CC[C@]1(c1cccc(O)c1)C3 (relative stereo) [Compound 4] has a reported Ki ratio μ/δ of 5.18

The molecule listed as Oc1cccc([C@]23CCN(CC4CC4)C[C@@H]2Cc2c([nH]c4ccc(F)cc24)C3)c1 (relative stereo) [Compound 37] has a reported Ki ratio μ/δ of 223

The molecule listed as CN1CC[C@]2(c3cccc(O)c3)Cc3[nH]c4ccccc4c3C[C@H]2C1 (relative stereo) [Compound 2] has a reported Ki ratio μ/δ of 8.55

The molecule listed as Oc1ccc2c3c1O[C@H]1c4[nH]c5ccccc5c4C[C@@]4(O)[C@@H](C2)N(CC2CC2)CC[C@]314 [NTI, nartol indole, reference compound] has a reported Ki ratio μ/δ of 100

The molecule listed as C=CCN1CC[C@]2(c3cccc(O)c3)Cc3[nH]c4ccccc4c3C[C@H]2C1 (relative stereo) [Compound 31] has a reported Ki ratio μ/δ of > 9090

====

# System: mouse T cells
# protocol summary: Inhibiting proliferation of mouse T cells by Con-A stimulation ([3H]thymidine uptake, spleen cells)
# Assay type: cell-based
# recorded conditions: Mus musculus, T-cell, ConA-stimulated mouse T cells; read-out: IC50, activity in inhibiting T cell hyperplasia (Table 3)
Consider the following molecules; for each one, report its IC50.
Reply numerically in µg/mL, unit not repeated.

The molecule listed as Oc1cccc([C@]23CCN(CC4CC4)C[C@@H]2Cc2c([nH]c4ccccc24)C3)c1 (single isomer, unassigned) [Compound 47] has a reported IC50 of 3.8

The molecule listed as Oc1cccc([C@]23CCN(CC4CC4)C[C@@H]2Cc2c([nH]c4ccccc24)C3)c1 (relative stereo) [Compound 19] has a reported IC50 of 2.7

The molecule listed as C=CCN1CC[C@]2(c3cccc(O)c3)Cc3[nH]c4ccccc4c3C[C@H]2C1 (relative stereo) has a reported IC50 of 2.6

The molecule listed as Oc1cccc([C@]23CCN(CC4CC4)C[C@]2(O)Cc2c([nH]c4ccccc24)C3)c1 (relative stereo) has a reported IC50 of 14

====

# measurement target: μ opioid receptor (Cavia porcellus)
# Construct: 3H-DAGO (DAMGO) radioligand, cold naloxone
# Sequence (A0ACM8Q262 1-400): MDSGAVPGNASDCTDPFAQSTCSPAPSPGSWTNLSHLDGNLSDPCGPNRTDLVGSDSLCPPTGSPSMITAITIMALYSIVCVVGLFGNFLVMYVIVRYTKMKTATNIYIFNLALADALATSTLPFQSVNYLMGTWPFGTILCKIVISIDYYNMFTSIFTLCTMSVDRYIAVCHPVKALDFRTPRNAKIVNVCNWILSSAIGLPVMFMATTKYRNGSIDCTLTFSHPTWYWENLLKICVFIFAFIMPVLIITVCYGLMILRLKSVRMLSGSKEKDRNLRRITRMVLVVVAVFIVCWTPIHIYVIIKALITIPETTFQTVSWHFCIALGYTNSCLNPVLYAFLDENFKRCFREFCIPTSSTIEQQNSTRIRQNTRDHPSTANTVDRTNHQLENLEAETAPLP
# protocol summary: Bonding (binding) assay, guinea pig brain homogenate, 3H-DAGO (hot) / naloxone (cold)
# recorded conditions: selectivity ratio
test readout: Ki ratio κ/μ
The answer should be written as a number, with no unit following it.

The molecule listed as Cn1c2c(c3ccccc31)C[C@H]1CN(CC3CC3)CC[C@]1(c1cccc(O)c1)C2 (relative stereo) has a reported Ki ratio κ/μ of 0.09

The molecule listed as Oc1cccc([C@]23CCN(CC4CC4)C[C@]2(O)Cc2c([nH]c4ccccc24)C3)c1 (relative stereo) has a reported Ki ratio κ/μ of 2.14

The molecule listed as Oc1cccc([C@]23CCN(CC4CC4)C[C@@H]2Cc2c([nH]c4c(Cl)cccc24)C3)c1 (relative stereo) has a reported Ki ratio κ/μ of 0.57

The molecule listed as Oc1cccc([C@]23CCN(CC4CC4)C[C@@H]2Cc2c([nH]c4c(F)cccc24)C3)c1 (relative stereo) has a reported Ki ratio κ/μ of 0.31

The molecule listed as C=CCN1CC[C@]2(c3cccc(O)c3)Cc3[nH]c4ccccc4c3C[C@H]2C1 (relative stereo) has a reported Ki ratio κ/μ of 0.09

====

# measurement target: κ opioid receptor (Cavia porcellus)
# Construct: the homogenate of the brain of a guinea pig; from tissue; host or cells: guinea pig brain homogenate
# Sequence (P41144 whole entry): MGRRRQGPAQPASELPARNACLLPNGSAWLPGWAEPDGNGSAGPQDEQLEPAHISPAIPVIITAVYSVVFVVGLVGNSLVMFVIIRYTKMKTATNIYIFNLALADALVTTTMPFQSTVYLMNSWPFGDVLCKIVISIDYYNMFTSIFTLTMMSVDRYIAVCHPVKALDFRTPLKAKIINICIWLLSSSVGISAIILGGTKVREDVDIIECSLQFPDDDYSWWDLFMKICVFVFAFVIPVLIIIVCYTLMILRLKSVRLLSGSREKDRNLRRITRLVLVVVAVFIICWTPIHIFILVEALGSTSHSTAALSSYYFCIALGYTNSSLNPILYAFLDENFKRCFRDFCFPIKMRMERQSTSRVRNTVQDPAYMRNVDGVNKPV
# protocol summary: Bonding (binding) assay, guinea pig brain homogenate, EKC (hot) / naloxone (cold)
test readout: pKi
Kindly note that pKi refers to -log10 of the concentration in mol/L and answer with the value alone.

The compound listed as Oc1cccc([C@]23CCN(CC4CC4)C[C@@H]2Cc2c([nH]c4ccccc24)C3)c1 (single isomer, unassigned) [Compound 47] has a reported pKi of 6.41

The compound listed as Oc1cccc([C@]23CCN(CC4CC4)C[C@@H]2Cc2c([nH]c4ccccc24)C3)c1 (single isomer, unassigned) [Compound 52] has a reported pKi of 5.64

The compound listed as CN1CC[C@]2(c3cccc(O)c3)Cc3c(c4ccccc4n3C)C[C@H]2C1 (relative stereo) has a reported pKi of 6.42

====

# measurement target: δ-receptor (Mus musculus)
# Construct: from tissue; host or cells: mouse vas deferens
# protocol summary: Antagonism to DPDPE in Mouse Vas Deferens (MVD)
# recorded conditions: (50 nM)
Consider the following compounds; for each one, report its MVD Antagonism to DPDPE, DR.
The answer should be written as a number, with no unit following it.

The compound listed as Oc1cccc([C@]23CCN(CC4CC4)C[C@@H]2Cc2c([nH]c4c(F)cccc24)C3)c1 (relative stereo) [Compound 29] has a reported MVD Antagonism to DPDPE, DR of 34.1

The compound listed as Oc1cccc([C@]23CCN(CC4CC4)C[C@@H]2Cc2c([nH]c4ccccc24)C3)c1 (relative stereo) [Compound 19] has a reported MVD Antagonism to DPDPE, DR of 9.62

The compound listed as Oc1cccc([C@]23CCN(CC4CC4)C[C@@H]2Cc2c([nH]c4c(Cl)cccc24)C3)c1 (relative stereo) [Compound 40] has a reported MVD Antagonism to DPDPE, DR of 18.5

The compound listed as Oc1cccc([C@]23CCN(CC4CC4)C[C@@H]2Cc2c([nH]c4ccccc24)C3)c1 (single isomer, unassigned) [Compound 47] has a reported MVD Antagonism to DPDPE, DR of 30.5

The compound listed as CN1CC[C@]2(c3cccc(O)c3)Cc3[nH]c4ccccc4c3C[C@@]2(O)C1 (relative stereo) [Compound 54] has a reported MVD Antagonism to DPDPE, DR of 22.4

====

Consider the following molecules; for each one, report its Kb.
# measurement target: δ-receptor (Mus musculus)
# Construct: from tissue; host or cells: mouse vas deferens
# protocol summary: Antagonism to DPDPE in Mouse Vas Deferens (MVD)
# recorded conditions: MVD Antagonism to DPDPE, pA2, (20 nM)
// return the numeric value with its unit appended

The molecule listed as Oc1cccc([C@]23CCN(CC4CC4)C[C@@H]2Cc2c([nH]c4c(F)cccc24)C3)c1 (relative stereo) [Compound 29] has a reported Kb of 3.89 nM

The molecule listed as Oc1cccc([C@]23CCN(CC4CC4)C[C@@H]2Cc2c([nH]c4ccccc24)C3)c1 (single isomer, unassigned) [Compound 47] has a reported Kb of 5.75 nM

The molecule listed as Oc1cccc([C@]23CCN(CC4CC4)C[C@@H]2Cc2c([nH]c4ccccc24)C3)c1 (relative stereo) [Compound 19] has a reported Kb of 5.01 nM

The molecule listed as Oc1cccc([C@]23CCN(CC4CC4)C[C@@H]2Cc2c([nH]c4c(Cl)cccc24)C3)c1 (relative stereo) [Compound 40] has a reported Kb of 10 nM

The molecule listed as CN1CC[C@]2(c3cccc(O)c3)Cc3[nH]c4ccccc4c3C[C@@]2(O)C1 (relative stereo) [Compound 54] has a reported Kb of 5.75 nM
